These measurements were taken from PubChem BioAssay AID330.

system: P388 leukemia ip, CD2F1 mice, survival T/C; experiment: NCI In Vivo Anticancer Drug Screen. Data for tumor model P388 Leukemia (intraperitoneal) in CD2F1 (CDF1) mice; conditions: endpoint: median survival time; dose: 12.5 mg/kg/injection; schedule: Q01DX009 (ip); vehicle: distilled water + Tween-80; higher = longer survival
Toxic doses and inconclusive results are not listed.
measurement-type: T/C

query: Let me know recorded T/C for CCOC(=O)c1ccc(NC(=O)NC2=NCCS2)cc1 , thanks.
result: 96 % of control

query: Let me know recorded T/C for COC(=O)c1cnc(N)n1C , thanks.
result: 101 % of control

query: Let me know recorded T/C for CCOC(=O)c1nc(OCC)nc(OCC)c1I , thanks.
result: 112 % of control

query: Let me know recorded T/C for O=C1c2ccncc2C(=O)c2c(O)ccc(O)c21 , thanks.
result: 102 % of control

query: Let me know recorded T/C for OCc1ccc(Cl)cc1O , thanks.
result: 100 % of control

###

test system: P388 leukemia ip, CD2F1 mice, survival T/C; assay: NCI In Vivo Anticancer Drug Screen. Data for tumor model P388 Leukemia (intraperitoneal) in CD2F1 (CDF1) mice; details: endpoint: median survival time; dose: 100.0 mg/kg/injection; schedule: Q01DX001 (ip); vehicle: saline with Tween-80; higher = longer survival
Toxic doses and inconclusive results are not listed.
Provide the reported T/C of each item.

query: Let me know recorded T/C for NC(=S)N/N=C/c1[nH]c2cc(Br)c(Br)cc2c1Br , thanks.
result: 91 % of control

query: Let me know recorded T/C for CO[C@H]1C[C@@H]2CC[C@@H](C)[C@@](O)(O2)C(=O)C(=O)N2CCCC[C@H]2C(=O)O[C@H]([C@H](C)C[C@@H]2CC[C@@H](O)[C@H](OC)C2)CC(=O)[C@H](C)C=C(C)[C@@H](O)[C@@H](OC)C(=O)[C@H](C)C[C@H](C)/C=C/C=C/C=C1C , thanks.
result: 124 % of control

query: Let me know recorded T/C for COc1ccc(N=C2SCC(=O)N2NC(=O)CN2C(=O)c3ccccc3C2=O)cc1 , thanks.
result: 99 % of control

query: Let me know recorded T/C for Cc1ccc(/C=N/N=c2/sc3ccccc3n2CC(=O)O)cc1 , thanks.
result: 98 % of control

###

tested on: P388 leukemia ip, CD2F1 mice, survival T/C; test: NCI In Vivo Anticancer Drug Screen. Data for tumor model P388 Leukemia (intraperitoneal) in CD2F1 (CDF1) mice; conditions: endpoint: median survival time; dose: 50.0 mg/kg/injection; schedule: Q01DX005 (ip); vehicle: saline with Tween-80; higher = longer survival
Inconclusive results and toxic doses are left out.
Provide the reported T/C of each item.

query: Let me know recorded T/C for CC(/C=C/c1ccc(C)cc1)=N\NC(N)=O , thanks.
result: 103 % of control

query: Let me know recorded T/C for CC1=CC(=O)OC12CCCC(C)(C)C2 (configuration not stated) , thanks.
result: 106 % of control

query: Let me know recorded T/C for OC(COc1c2ccccc2nc2ccccc12)CN1CCOCC1 (configuration not stated) , thanks.
result: 99 % of control

query: Let me know recorded T/C for CCOC(=O)N1c2ccccc2C(c2ccccc2)=NC1(C)C#N (configuration not stated) , thanks.
result: 97 % of control

query: Let me know recorded T/C for Oc1ccc(/C=N/N=C/c2ccc(O)c(O)c2)cc1O , thanks.
result: 121 % of control

query: Let me know recorded T/C for CCCCCNc1ncnc2[nH]ncc12 , thanks.
result: 96 % of control

query: Let me know recorded T/C for CC(/C=C/c1ccc2c(c1)OCO2)=N\NC(N)=O , thanks.
result: 100 % of control
